Test system: A498 (Renal cancer)
Test: NCI-60 screen (SRB, 48 h)
Conditions: Homo sapiens, A498, read-out: LC50
measuredEndpoint: CC50 (µM)

INSERT INTO assay_data (smiles, experimentalvalue) VALUES
  ('C=C(C)[C@@H]1CCC=C2CC[C@]3(C)[C@H](CC[C@@H]4[C@@]5(C)CCCNC(C)(C)[C@@H]5CC[C@]43C)[C@H]21', 7.08),
  ('Cc1ccc(S(=O)(=O)OC[C@]23CCC(C)(C)C[C@H]2C2=CC[C@@H]4[C@@]5(C)CCCNC(C)(C)[C@@H]5CC[C@@]4(C)[C@]2(C)CC3)cc1', 57.6),
  ('CC(C)=C1CCC=C2CC[C@]3(C)[C@H](CC[C@@H]4[C@@]5(C)CCCNC(C)(C)[C@@H]5CC[C@]43C)[C@H]21', 6.93);

###

Test system: CCRF-CEM (Leukemia)
Assay: NCI-60 screen (SRB, 48 h)
Conditions: Homo sapiens, 48 h, read-out: TGI
measuredEndpoint: IC (TGI) (µM)

INSERT INTO results (compound, system, measuredendpoint, quantityunit, experimentalvalue) VALUES
  ('CC1(C)CC[C@]2(CO)CC[C@]3(C)C(=CC[C@@H]4[C@@]5(C)CCCNC(C)(C)[C@@H]5CC[C@]43C)[C@@H]2C1', 'CCRF-CEM (Leukemia)', 'IC (TGI)', 'µM', 8.96),
  ('CC1(C)NCCC[C@]2(C)[C@H]3C=CC4=C5C[C@@](C)(CO)CC[C@]5(C)CC[C@@]4(C)[C@]3(C)CC[C@@H]12', 'CCRF-CEM (Leukemia)', 'IC (TGI)', 'µM', 14.5),
  ('Cc1ccc(S(=O)(=O)OC[C@@]2(C)CC[C@]3(C)CC[C@]4(C)C(=C3C2)C=C[C@@H]2[C@@]3(C)CCCNC(C)(C)[C@@H]3CC[C@]24C)cc1', 'CCRF-CEM (Leukemia)', 'IC (TGI)', 'µM', 6.06),
  ('C[C@H]1[C@H](C)CC[C@]2(CO)CC[C@]3(C)C(=CC[C@@H]4[C@@]5(C)CCCNC(C)(C)[C@@H]5CC[C@]43C)[C@H]12', 'CCRF-CEM (Leukemia)', 'IC (TGI)', 'µM', 3.93),
  ('C=C(C)C1CCC2(CO)CCC3(C)C(CCC4C5(C)CCCNC(C)(C)C5CCC43C)C12 (stereo not drawn)', 'CCRF-CEM (Leukemia)', 'IC (TGI)', 'µM', 4.91),
  ('C=C(C)[C@@H]1CC[C@]2(C)[C@H](C=CC3=C4C[C@@](C)(CO)CC[C@]4(C)CC[C@]32C)[C@@]1(C)CCCN', 'CCRF-CEM (Leukemia)', 'IC (TGI)', 'µM', 5.56);

###

A collection of compounds and their measured IC (TGI)
Test system: SW-620 (Colon cancer)
Assay: NCI-60 screen (SRB, 48 h)
Conditions: Homo sapiens, SW-620, 48 h, read-out: TGI
measuredEndpoint: IC (TGI) (µM)

INSERT INTO results (smiles, experimentalvalue) VALUES
  ('CC1(C)CC[C@]2(CO)CC[C@]3(C)C(=CC[C@@H]4[C@@]5(C)CCCNC(C)(C)[C@@H]5CC[C@]43C)[C@@H]2C1', 4),
  ('CC1(C)CC[C@]23CC[C@]4(C)[C@H](CC[C@@H]5[C@@]6(C)CCCNC(C)(C)[C@@H]6CC[C@]54C)[C@H]2[C@H]1OC3', 3.49),
  ('Cc1ccc(S(=O)(=O)OC[C@@]2(C)CC[C@]3(C)CC[C@]4(C)C(=C3C2)C=C[C@@H]2[C@@]3(C)CCCNC(C)(C)[C@@H]3CC[C@]24C)cc1', 3.54);
